Assay: qHTS assay for small molecules that induce genotoxicity in human embryonic kidney cells expressing luciferase-tagged ATAD5 - cell viability (AID 651634); further: nearly all actives have a fitted effect of over 25% in size
Details: HEK293T ATAD5-luc cells viability, CellTiter-Fluor, 15.5 h; series mostly up to 83.3 µM
Records with an inconclusive call do not appear. Active and inactive are the calls of the source. The call rests on the fitted dose curve.
Outcomes: TRUE = active, FALSE = inactive

compound=CCCCCCCCc1ccc(O)cc1 class_name=FALSE
compound=CC(=O)c1cc(C(C)(C)C)cc2c1CCC2(C)C class_name=FALSE
compound=N#CCCSCCC#N class_name=FALSE
compound=O=[N+]([O-])c1c2ccccc2cc2ccccc12 class_name=FALSE
compound=Oc1ccc2ccc3cccc4ccc1c2c34 class_name=FALSE
compound=CC(C)Oc1cccc(NC(=O)c2ccccc2C(F)(F)F)c1 class_name=FALSE
compound="O=C(O)C1C2CCC(O2)C1C(=O)O (centres undefined)" class_name=FALSE
compound=Cn1cc(C2=C(c3cn(C4CCN(Cc5ccccn5)CC4)c4ccccc34)C(=O)NC2=O)c2ccccc21 class_name=FALSE
compound=CC(C)(C)c1cc([N+](=O)[O-])cc(C(C)(C)C)c1O class_name=TRUE
compound=CC(=O)O[C@H]1CC[C@@]2(C)C(=CC[C@@H]3[C@@H]2CC[C@]2(C)C(=O)CC[C@@H]32)C1 class_name=FALSE
compound="CCCN(CC)CC1COC2(CCC(C(C)(C)C)CC2)O1 (centres undefined)" class_name=FALSE
compound="CCCCCCCCCCCCCN1CC(C)OC(C)C1 (centres undefined)" class_name=FALSE
compound=c1ccc2c(c1)[nH]c1cnccc12 class_name=FALSE
compound=O=c1oc2ccccc2c(O)c1Cc1c(O)c2ccccc2oc1=O class_name=FALSE
compound=CN(C)C(=S)[S-].CN(C)C(=S)[S-].[Cu+2] class_name=TRUE
compound=C=CC(=O)OCC(COC(=O)C=C)(COC(=O)C=C)COC(=O)C=C class_name=TRUE
compound=FC(F)(F)c1cccc(C2=CCN(CCc3ccc4ccccc4c3)CC2)c1 class_name=FALSE
compound=S=C=Nc1cccc2ccccc12 class_name=FALSE
compound=O=[N+]([O-])c1cc([N+](=O)[O-])c2ccccc2c1 class_name=FALSE

---

Test: qHTS assay to identify small molecule agonists of the androgen receptor (AR) signaling pathway in the presence of an antagonist - cell viability counter screen (AID 1259379); further: nearly all actives have a fitted effect of over 25% in size
Settings: MDA-kb2 viability, CellTiter-Fluor, 16 h; series mostly up to 92.4 µM
Results filed as inconclusive are left out. The source made the active and inactive calls. Calls follow the shape of the dose curve; as a rule, active = well fitted cell-killing curve with a large enough effect in the repeat runs; inconclusive = weak or mixed curves, or effect the other way; inactive = flat fitted curve, though single readings scatter.
Outcomes: active, inactive

molecule=Oc1ccc(C(c2ccc(O)cc2)(C(F)(F)F)C(F)(F)F)cc1 class_name=inactive
molecule=CC(C)OC(=O)C(O)(c1ccc(Cl)cc1)c1ccc(Cl)cc1 class_name=inactive
molecule="ClC1=C(Cl)C2(Cl)C3C(Cl)C=CC3C1(Cl)C2(Cl)Cl (centres undefined)" class_name=inactive
molecule=CN(C)C(=S)[S-].CN(C)C(=S)[S-].[Cu+2] class_name=active

---

Measured Potency, listed per entry.
Biological target: Nuclear receptor subfamily 1 group I member 2 (Homo sapiens) (UniProt O75469)
Sequence (O75469 whole entry, looked up): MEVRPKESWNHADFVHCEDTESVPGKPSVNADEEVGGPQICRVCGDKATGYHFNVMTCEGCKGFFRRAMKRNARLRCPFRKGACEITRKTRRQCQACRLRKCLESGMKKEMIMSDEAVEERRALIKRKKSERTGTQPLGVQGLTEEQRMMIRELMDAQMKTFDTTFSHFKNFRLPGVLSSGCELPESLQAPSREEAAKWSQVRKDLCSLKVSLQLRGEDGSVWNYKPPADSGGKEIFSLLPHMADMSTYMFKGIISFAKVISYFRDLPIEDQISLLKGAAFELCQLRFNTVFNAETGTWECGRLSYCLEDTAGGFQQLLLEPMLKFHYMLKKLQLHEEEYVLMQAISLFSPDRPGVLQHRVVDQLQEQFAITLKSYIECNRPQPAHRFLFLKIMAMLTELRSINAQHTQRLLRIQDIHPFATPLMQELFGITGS
Test: Human pregnane X receptor (PXR) small molecule agonists, qHTS assay (AID 1346982); further: potency means the concentration at half of the fitted maximal effect; nearly all actives have a fitted effect of over 35% in size
Conditions: PXR-Luc HepG2, CYP3A4 luciferase reporter, 24 h; series mostly up to 92.4 µM
Records with an inconclusive call do not appear. Activity calls are given as the source filed them. Calls come from the whole dose curve; as a rule, active = well fitted activation curve with a large enough effect in the repeat runs; inconclusive = weak or mixed curves; inactive = no such curve, though single readings can be large or run the other way.
Endpoint Name: Potency

compound="CC(Cc1ccc(C(C)(C)C)cc1)CN1C[C@@H](C)O[C@@H](C)C1 (stereo partly drawn)" endpoint_name=Potency assay_result="30.6 µM (active)"
compound=CCC[CH2][Sn]([CH2]CCC)([CH2]CCC)[O]C(=O)c1ccccc1 endpoint_name=Potency assay_result="0.486 µM (active)"
compound=CC(=O)c1ccc(-c2ccccc2)cc1 endpoint_name=Potency assay_result="48.6 µM (active)"

---

Molecular target: Cytochrome P450 3A4 (Homo sapiens)
Assay: Cytochrome P450 Family 3 Subfamily A Member 4 (CYP3A4) small molecule antagonists: luciferase reporter qHTS assay (AID 1671201); further: nearly all actives have a fitted effect of over 50% in size
Details: P450-Glo CYP3A4 enzyme, luciferin luminescence, 1 h; series mostly up to 115 µM
Results filed as inconclusive are left out. The source made the active and inactive calls. Calls come from the whole dose curve; as a rule, active = well fitted inhibition curve with a large enough effect in the repeat runs; inconclusive = weak or mixed curves; inactive = no such curve, though single readings can be large or run the other way.
Outcomes: yes (active), no (inactive)

compound=CCCCOCN(C(=O)CCl)c1c(CC)cccc1CC target_or_system="Cytochrome P450 3A4 (Homo sapiens)" class_name=yes
compound="CNC(C)Cc1ccc2c(c1)OCO2 (stereo not drawn)" target_or_system="Cytochrome P450 3A4 (Homo sapiens)" class_name=no
compound="CC(C)CC(C)N (stereo not drawn)" target_or_system="Cytochrome P450 3A4 (Homo sapiens)" class_name=no

---

Target: Estrogen receptor beta (Homo sapiens)
Experiment: qHTS assay to identify small molecule antagonists of the estrogen receptor beta (ER-beta) signaling pathway (AID 1259378)
Details: ER-beta-UAS-bla HEK293T, beta-lactamase FRET ratio, 16 h; series mostly up to 92.4 µM
Records with an inconclusive call do not appear. Calls of active or inactive are those of the source. Calls come from the whole dose curve; as a rule, active = well fitted inhibition curve with a large enough effect in the signal ratio in the repeat runs (not every such curve was filed as active); inconclusive = weak or mixed curves, or effect the other way; inactive = no such curve, though single readings can be large or run the other way; the % refers to the signal ratio.
Outcomes: yes = active, no = inactive

structure_smiles=Cc1ccc(OP(=O)(Oc2ccccc2)Oc2ccccc2)cc1 class_name=yes
structure_smiles=N#CNC#N class_name=no
structure_smiles=c1ccc2c(c1)[nH]c1cnccc12 class_name=no
structure_smiles=O=C(NC(=O)c1c(F)cccc1F)Nc1cc(Cl)c(OC(F)(F)C(F)F)c(Cl)c1 class_name=no

---

Assay: qHTS assay to identify small molecule antagonists of the thyroid receptor (TR) signaling pathway (AID 743065); further: nearly all actives have a fitted effect of over 55% in size
Settings: GH3.TRE-Luc, T3-stimulated luciferase inhibition, 23.5 h; series mostly up to 70.3 µM
Inconclusive results are not listed. Activity calls are given as the source filed them. The call rests on the fitted dose curve; in most records, active means well fitted inhibition curve with a large enough effect in the repeat runs; inconclusive means weak or mixed curves; inactive means no such curve, though single readings can be large or run the other way.
Outcomes: active, inactive

compound=O=c1oc2ccccc2c(O)c1Cc1c(O)c2ccccc2oc1=O class_name=active
compound="CCC(C)c1cc([N+](=O)[O-])cc([N+](=O)[O-])c1OC(=O)C=C(C)C (centres undefined)" class_name=active
compound=ClCc1ccc(Cl)cc1Cl class_name=inactive
compound=S=C(SSC(=S)N1CCCCC1)N1CCCCC1 class_name=active
compound="CC1(c2ccc(Oc3ccccc3)cc2)OC(=O)N(Nc2ccccc2)C1=O (centres undefined)" class_name=active
compound=O=S(=O)(c1ccc(Cl)cc1)c1ccc(Cl)cc1 class_name=inactive
compound=CCCCCCCCCBr class_name=inactive
compound=CCc1nn(C)c(C(=O)NCc2ccc(C(C)(C)C)cc2)c1Cl class_name=active
compound=CC(C)CCCCCCCOP(=O)(Oc1ccccc1)Oc1ccccc1 class_name=active
compound=C[C@@H]1CC[C@@]2(OC1)O[C@H]1[C@@H](O)[C@H]3[C@@H]4CC[C@H]5C[C@@H](O[C@@H]6O[C@H](CO)[C@H](O[C@@H]7O[C@H](CO)[C@@H](O)[C@H](O[C@@H]8OC[C@@H](O)[C@H](O)[C@H]8O)[C@H]7O[C@@H]7O[C@H](CO)[C@@H](O)[C@H](O[C@@H]8O[C@H](CO)[C@@H](O)[C@H](O)[C@H]8O)[C@H]7O)[C@H](O)[C@H]6O)[C@H](O)C[C@]5(C)[C@H]4CC[C@]3(C)[C@H]1[C@@H]2C class_name=active
compound=CCCOCC(=Nc1ccc(Cl)cc1C(F)(F)F)n1ccnc1 class_name=active
compound=Cc1cc(C)c(C2=C(OC(=O)CC(C)(C)C)C3(CCCC3)OC2=O)c(C)c1 class_name=inactive
compound="N#CCCC(Br)(C#N)CBr (centres undefined)" class_name=active
compound=O=C(O)c1cc[c]([Hg][Cl])cc1 class_name=active

---

Target: Aromatase (Homo sapiens) (UniProt P11511)
Sequence (P11511 whole entry, looked up): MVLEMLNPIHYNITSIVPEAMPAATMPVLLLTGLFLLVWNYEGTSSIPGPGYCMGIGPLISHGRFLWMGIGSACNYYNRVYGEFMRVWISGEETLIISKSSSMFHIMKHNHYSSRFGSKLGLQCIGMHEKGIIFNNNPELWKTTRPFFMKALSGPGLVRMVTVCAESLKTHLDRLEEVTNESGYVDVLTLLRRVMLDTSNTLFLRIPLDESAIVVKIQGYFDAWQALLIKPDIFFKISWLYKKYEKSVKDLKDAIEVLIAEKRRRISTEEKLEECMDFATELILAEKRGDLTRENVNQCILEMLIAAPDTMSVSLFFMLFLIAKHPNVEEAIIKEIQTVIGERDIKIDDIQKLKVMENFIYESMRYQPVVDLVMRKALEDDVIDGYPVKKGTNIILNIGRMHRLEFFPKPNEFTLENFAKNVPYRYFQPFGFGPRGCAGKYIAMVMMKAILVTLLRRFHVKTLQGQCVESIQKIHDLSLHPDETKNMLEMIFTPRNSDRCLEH
Assay: qHTS assay to identify aromatase inhibitors (AID 743083); further: nearly all actives have a fitted effect of over 55% in size
Conditions: MCF-7 aro ERE, testosterone-driven ERE luciferase, 24 h; series mostly up to 70.3 µM
Inconclusive results are not listed. The source made the active and inactive calls. Calls come from the whole dose curve; as a rule, active = well fitted inhibition curve with a large enough effect in the repeat runs; inconclusive = weak or mixed curves; inactive = no such curve, though single readings can be large or run the other way.
Outcomes: active, inactive

compound=CCCN(CCC)c1c([N+](=O)[O-])cc(S(N)(=O)=O)cc1[N+](=O)[O-] target_or_system="Aromatase (Homo sapiens) (UniProt P11511)" class_name=active
compound=ClC(Cl)=C(c1ccc(Cl)cc1)c1ccc(Cl)cc1 target_or_system="Aromatase (Homo sapiens) (UniProt P11511)" class_name=inactive
compound=CCCCCCCCc1ccc(O)cc1 target_or_system="Aromatase (Homo sapiens) (UniProt P11511)" class_name=active
compound=O=c1oc2ccccc2c(O)c1Cc1c(O)c2ccccc2oc1=O target_or_system="Aromatase (Homo sapiens) (UniProt P11511)" class_name=inactive
compound="CC1(C)C(/C=C(\\Cl)C(F)(F)F)C1C(=O)OC(C#N)c1cccc(Oc2ccccc2)c1 (centres undefined)" target_or_system="Aromatase (Homo sapiens) (UniProt P11511)" class_name=inactive
compound="Clc1ccc(CSC(Cn2ccnc2)c2ccc(Cl)cc2Cl)cc1 (centres undefined)" target_or_system="Aromatase (Homo sapiens) (UniProt P11511)" class_name=active
compound=CCc1nn(C)c(C(=O)NCc2ccc(C(C)(C)C)cc2)c1Cl target_or_system="Aromatase (Homo sapiens) (UniProt P11511)" class_name=active
compound=C[C@]12CC[C@@H]3c4ccc(OC(=O)N(CCCl)CCCl)cc4CC[C@H]3[C@@H]1CC[C@@H]2O target_or_system="Aromatase (Homo sapiens) (UniProt P11511)" class_name=inactive
compound=Clc1ccc(C(c2ccc(Cl)cc2)C(Cl)(Cl)Cl)cc1 target_or_system="Aromatase (Homo sapiens) (UniProt P11511)" class_name=inactive
compound=COP(=S)(OC)Oc1cc(Cl)c(Br)cc1Cl target_or_system="Aromatase (Homo sapiens) (UniProt P11511)" class_name=inactive
compound=O=C(NC(=O)c1c(F)cccc1F)Nc1cc(Cl)c(OC(F)(F)C(F)F)c(Cl)c1 target_or_system="Aromatase (Homo sapiens) (UniProt P11511)" class_name=inactive
compound=O=[N+]([O-])c1cc(C(F)(F)F)c(Cl)c([N+](=O)[O-])c1Cl target_or_system="Aromatase (Homo sapiens) (UniProt P11511)" class_name=active
compound="CCCCCCCCCCCCCC[P+](CCCCCC)(CCCCCC)CCCCCC (tested in a mixture with another compound)" target_or_system="Aromatase (Homo sapiens) (UniProt P11511)" class_name=active
compound=[Cl][Sb]([Cl])[Cl] target_or_system="Aromatase (Homo sapiens) (UniProt P11511)" class_name=inactive
compound=CC1(C)CN=C(NN=C(/C=C/c2ccc(C(F)(F)F)cc2)/C=C/c2ccc(C(F)(F)F)cc2)NC1 target_or_system="Aromatase (Homo sapiens) (UniProt P11511)" class_name=active
compound=O=c1ssc(Cl)c1Cl target_or_system="Aromatase (Homo sapiens) (UniProt P11511)" class_name=active
compound=N#CCCSCCC#N target_or_system="Aromatase (Homo sapiens) (UniProt P11511)" class_name=inactive
compound=CC(C)(O)c1cnn2c(-c3ccc(F)c(-c4c(F)cccc4C#N)c3)cnc2n1 target_or_system="Aromatase (Homo sapiens) (UniProt P11511)" class_name=active
compound=CC(C)[C@H](C(=O)O[C@H](C#N)c1cccc(Oc2ccccc2)c1)c1ccc(Cl)cc1 target_or_system="Aromatase (Homo sapiens) (UniProt P11511)" class_name=inactive
compound="CC(C)CC(C)N (centres undefined)" target_or_system="Aromatase (Homo sapiens) (UniProt P11511)" class_name=inactive
compound=Cc1cc(C(C)(C)c2cc(C)c(O)c(C)c2)cc(C)c1O target_or_system="Aromatase (Homo sapiens) (UniProt P11511)" class_name=active
compound="Clc1ccc(C(c2ccccc2Cl)C(Cl)(Cl)Cl)cc1 (centres undefined)" target_or_system="Aromatase (Homo sapiens) (UniProt P11511)" class_name=inactive
compound=ClC(Cl)=C(Cl)Cl target_or_system="Aromatase (Homo sapiens) (UniProt P11511)" class_name=inactive
compound=CCCSP(=O)(OCC)SCCC target_or_system="Aromatase (Homo sapiens) (UniProt P11511)" class_name=inactive
compound="O=C1NCN(c2ccccc2)C12CCN(CC1COc3ccccc3O1)CC2 (centres undefined)" target_or_system="Aromatase (Homo sapiens) (UniProt P11511)" class_name=inactive
compound=N#C/C=C/C#N target_or_system="Aromatase (Homo sapiens) (UniProt P11511)" class_name=active
compound=BrCBr target_or_system="Aromatase (Homo sapiens) (UniProt P11511)" class_name=inactive
compound=CN(C)S(=O)(=O)N(SC(F)(Cl)Cl)c1ccccc1 target_or_system="Aromatase (Homo sapiens) (UniProt P11511)" class_name=active
compound=O=c1[nH]c2ccccc2n1CCCN1CCC(n2c(=O)[nH]c3cc(Cl)ccc32)CC1 target_or_system="Aromatase (Homo sapiens) (UniProt P11511)" class_name=inactive
compound=Cc1ccc(OP(=O)(Oc2ccccc2)Oc2ccccc2)cc1 target_or_system="Aromatase (Homo sapiens) (UniProt P11511)" class_name=inactive
compound=FC(Cl)(Cl)Cl target_or_system="Aromatase (Homo sapiens) (UniProt P11511)" class_name=inactive
compound=CC(C)(C)c1cc([N+](=O)[O-])cc(C(C)(C)C)c1O target_or_system="Aromatase (Homo sapiens) (UniProt P11511)" class_name=active
compound="C[C@H]1CC[C@@H]2[C@@H](C)[C@H]3[C@H](C[C@H]4[C@@H]5CC=C6CC(O[C@@H]7O[C@H](CO)[C@H](O)[C@H](O[C@@H]8O[C@H](CO)[C@@H](O)[C@H](O)[C@H]8O)[C@H]7O[C@H]7O[C@@H](C)[C@H](O)[C@@H](O)[C@H]7O)CC[C@]6(C)[C@H]5CC[C@]34C)N2C1 (some centres undefined)" target_or_system="Aromatase (Homo sapiens) (UniProt P11511)" class_name=active
compound=CCCCCCCCCBr target_or_system="Aromatase (Homo sapiens) (UniProt P11511)" class_name=inactive

Data origin: PubChem BioAssay (Tox21)
